Tested on: ATP;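 also: ATP exposure 15 min at 22 °C before imaging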
Test: switch fluorescence ratio, 500 uM ATP over buffer (Cy3 cluster intensity, sum of 5 cycles each) (fold (ratio)); higher = stronger signal-on switching upon ATP binding; sequences stand for … in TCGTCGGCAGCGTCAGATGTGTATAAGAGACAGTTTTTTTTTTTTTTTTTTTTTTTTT…TC
Settings: aptamer strand: ATP DNA aptamer (quencher-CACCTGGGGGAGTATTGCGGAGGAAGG + anchor), 100 nM annealed; ATP concentration: 500 uM
Here the recorded switch fluorescence ratio is given for each entry.
readout-type: switch fluorescence ratio

- TCGCATTGGT: 1.24
- ACATTCCAAA: 1.03
- CAGGGACGGG: 1.03
- TAGCGATGGG: 1.01
- TTGGTTTAAA: 1
- ATGGTCATGT: 0.994
- AGAGCGGTTG: 0.969
- CGATACACGT: 1.04
- GGATGGAGGG: 0.965
- TTACTTCAGG: 1.03
- AGAGTGGTA: 0.949
- CAGATGGGGT: 0.984
- CTGTTAGGGG: 0.967
- ATCACATGAC: 1.19
- AGGGTTGTTG: 0.999
- GCGGATTGAA: 0.988
- ATGTAGGTTG: 0.988
- TCATTGTTAT: 0.999
- AAGTCCTGGA: 1.07
- ACTCGTAGCA: 1.19
- AAATGGTGGG: 1.13
- TCGGGGGGCG: 0.977
- ACTTACATGG: 1.23
- TTCTGTTCGC: 1.03
- CGGACAGGGT: 0.992
- CTGGCTTTTG: 0.999
- GACAGCGGCG: 1.01
- TCGAGTCGGT: 1.02
- AGAGTGGGGC: 0.982
- GTTCCGGGGA: 1.02
- AGGTGTTTGC: 1.05
- ATTTGGTCGT: 0.979
- CGGACAGGGA: 1.03
- TTTACTTTTT: 1.01
- CAACGTAGGT: 1.05
- CTGTCTGCCG: 1.01
- CAAAGGGCGG: 0.999

====

Here the recorded switch fluorescence ratio is given for each entry.
Test system: ATP;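 also: ATP exposure 15 min at 22 °C before imaging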
Experiment: switch fluorescence ratio, 500 uM ATP over buffer (Cy3 cluster intensity, sum of 5 cycles each) (fold (ratio)); higher = stronger signal-on switching upon ATP binding; sequences stand for … in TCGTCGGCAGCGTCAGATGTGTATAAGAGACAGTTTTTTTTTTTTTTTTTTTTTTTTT…TC
Conditions: aptamer strand: ATP DNA aptamer (quencher-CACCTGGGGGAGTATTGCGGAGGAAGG + anchor), 100 nM annealed; ATP concentration: 500 uM
readout-type: switch fluorescence ratio

• TAGCAGGGTT = 0.985
• CAATATTAGT = 0.996
• GGGTTAGGGC = 0.988
• TTCGGAGGAT = 1.02
• AGGCATGCTG = 0.98
• TATGGTCAGT = 0.968

====

Tested on: ATP;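 also: ATP exposure 15 min at 22 °C before imaging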
Assay: switch fluorescence ratio, 500 uM ATP over buffer (Cy3 cluster intensity, sum of 5 cycles each) (fold (ratio)); higher = stronger signal-on switching upon ATP binding; sequences stand for … in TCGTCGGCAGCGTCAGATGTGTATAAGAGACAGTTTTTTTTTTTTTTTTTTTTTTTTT…TC
Conditions: aptamer strand: ATP DNA aptamer (quencher-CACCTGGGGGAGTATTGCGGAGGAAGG + anchor), 100 nM annealed; ATP concentration: 500 uM
Here the recorded switch fluorescence ratio is given for each entry.
readout-type: switch fluorescence ratio

• TATGGAGTTT = 1.01
• CGGGAGAGAG = 1.03
• CTCTCAAGGG = 1.09
• TCTTTCCTTC = 1.04
• GGGAGGGTTC = 1.01
• TCTTATTTGG = 1.01
• GAGGCATCTC = 1.02
• CTAATTGCGG = 1.01
• GGCCTGAGGG = 0.985
• AGAGCCGGTG = 1
• CGGGGCGGTC = 0.96
• TGCTGAAAGA = 1.04
• TAGAGGTAGG = 0.979
• ATATTTTTGG = 0.993
• GAAGTATGTG = 1.01
• TACGTGCTCC = 1.14
• GAGAGGGAGC = 0.91
• GCATAGGGGG = 1.03
• ATTTGAGCGT = 1.02
• CCCGGGGGGT = 1.56
• TTTTTATGGG = 1.03
• CAAGTTCAAA = 1.01
• GGGGGAATTA = 1.01
• CTATATGTTG = 0.985
• TATGGCGCAT = 0.993
• TTGGACTCTT = 0.977
• GTAAGTGAGT = 0.994
• GAATGAAGAA = 0.999
• GACTTTTACC = 1.07
• ACGCTAGCCT = 1.18
• GCCGGGGTTA = 0.997

====

System: ATP;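 also: ATP exposure 15 min at 22 °C before imaging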
Experiment: switch fluorescence ratio, 500 uM ATP over buffer (Cy3 cluster intensity, sum of 5 cycles each) (fold (ratio)); higher = stronger signal-on switching upon ATP binding; sequences stand for … in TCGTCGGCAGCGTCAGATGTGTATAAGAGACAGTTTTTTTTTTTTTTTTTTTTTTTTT…TC
Conditions: aptamer strand: ATP DNA aptamer (quencher-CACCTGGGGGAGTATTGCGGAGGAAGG + anchor), 100 nM annealed; ATP concentration: 500 uM
readout-type: switch fluorescence ratio

- TTGCAAGAGA: 1.02
- AAATTCCTAC: 1.01
- AAGTGGTTGG: 0.984
- TTGGTGAGAG: 0.997
- AACTAGAGTT: 0.99
- AGAGTTTTGG: 0.979
- TATTTTAGGA: 0.974
- TTAGCTTGG: 0.999
- GCCCTATAGG: 1.01
- GAAGGTTCGT: 1
- GCTTTATGCT: 0.971
- TGAATGAATT: 0.997
- TATAGTGGCC: 0.998

====

System: ATP;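 also: ATP exposure 15 min at 22 °C before imaging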
Assay: switch fluorescence ratio, 500 uM ATP over buffer (Cy3 cluster intensity, sum of 5 cycles each) (fold (ratio)); higher = stronger signal-on switching upon ATP binding; sequences stand for … in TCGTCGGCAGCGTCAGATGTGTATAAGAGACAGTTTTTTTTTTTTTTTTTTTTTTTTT…TC
Conditions: aptamer strand: ATP DNA aptamer (quencher-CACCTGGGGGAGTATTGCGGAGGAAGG + anchor), 100 nM annealed; ATP concentration: 500 uM
readout-type: switch fluorescence ratio

- ATTGCTCTGT: 1.04
- CCTTTTTATT: 0.988
- AACGCGCGCC: 1.01
- ACTGGTCTCA: 1
- TGACGTGCGC: 1.14
- GATAATTGGT: 0.998
- ATTTTTTGTG: 0.973
- TTCGGTTATA: 0.986
- AATGTTTTGG: 0.995
- TTCCACATTT: 1.12
- TCATGTGGTA: 0.991
- GGGTCATTGT: 1.03
- AACGGATGAG: 0.987
- GGACGGGATT: 1.02

====

Here the recorded switch fluorescence ratio is given for each entry.
System: ATP;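 also: ATP exposure 15 min at 22 °C before imaging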
Assay: switch fluorescence ratio, 500 uM ATP over buffer (Cy3 cluster intensity, sum of 5 cycles each) (fold (ratio)); higher = stronger signal-on switching upon ATP binding; sequences stand for … in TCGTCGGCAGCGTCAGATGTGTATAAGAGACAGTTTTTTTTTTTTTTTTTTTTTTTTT…TC
Conditions: aptamer strand: ATP DNA aptamer (quencher-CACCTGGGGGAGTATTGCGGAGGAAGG + anchor), 100 nM annealed; ATP concentration: 500 uM
readout-type: switch fluorescence ratio

• TAATTTGGCT = 1.01
• CCAGGAAACG = 0.99
• AATCGGGGCG = 0.905
• GAAAGAAATG = 0.999
• TGCGTGGGGT = 1.01
• TTTGCCTTGG = 1.02
• TGAGGTGGGG = 0.989
• TTTGATTGGG = 1.01
• TGGTCGCAGG = 0.99

====

System: ATP;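 also: ATP exposure 15 min at 22 °C before imaging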
Experiment: switch fluorescence ratio, 500 uM ATP over buffer (Cy3 cluster intensity, sum of 5 cycles each) (fold (ratio)); higher = stronger signal-on switching upon ATP binding; sequences stand for … in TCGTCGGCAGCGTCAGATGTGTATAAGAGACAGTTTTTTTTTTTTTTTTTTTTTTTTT…TC
Conditions: aptamer strand: ATP DNA aptamer (quencher-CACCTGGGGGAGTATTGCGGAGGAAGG + anchor), 100 nM annealed; ATP concentration: 500 uM
Label scheme for switch fluorescence ratio: lower than 1 is NO, 1 and above is YES.

* TTTGAGGTGG | YES
* ATGCTTCTGT | NO
* GTGTTTAAGT | NO
* CGGAACGCA | YES
* TAGCTGAGGT | YES
* TCGTTTTCCC | YES
* AAAAGCTACT | YES
* ACTTGGCGCT | YES
* TGGGTTGGTG | YES
* AACAGCGGGA | YES
* CGGAACGCGA | YES

# credit: the supplement of paper PMC10126150
